- ASSAY_PROCEDURE: chemical genetic growth profiling, strain panel (AID 1159580);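 also: tested at 20 µM; growth read once vehicle control cultures reached saturation at 30 °C; 1 = growth at the plate median or of vehicle wells; lower values mean less growth of the strain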
- CONDITION_DETAILS: S. cerevisiae deletion strains, growth OD, locus YHR129C, strain ARP1, hits give low values
Out of some 5,500 compounds screened, about 2,000 (36%) were called active. Not shown: some 18% with an inconclusive outcome. The list shows a part of the results.
METRIC: normalized growth
Give bare numbers.

Each of the following entries comes with a recorded value; kindly state normalized growth for each.
1. Nc1ccc(S(=O)(=O)Nc2ccccn2)cc1
2. C1CCN2C[C@@H]3C[C@H](CN4CCCC[C@@H]34)[C@H]2C1
3. O=C(O)CF
4. C=C[C@@H](C1=CC(=O)C(OC)=C(OC)C1=O)c1ccccc1

A:
1. 1.02
2. 1.01
3. 0.998
4. 0.212
